// provenance: patent US20230272056A1

EXPERIMENTAL TARGET: T1, human LAP-TGFB1 Fc fusion (human)
T1 construct: also called human LAP-TGFβ1-Fc; human LAP-TGFβ-Fc isoform 1
T1 sequence (chain, as listed by the source limits assumed): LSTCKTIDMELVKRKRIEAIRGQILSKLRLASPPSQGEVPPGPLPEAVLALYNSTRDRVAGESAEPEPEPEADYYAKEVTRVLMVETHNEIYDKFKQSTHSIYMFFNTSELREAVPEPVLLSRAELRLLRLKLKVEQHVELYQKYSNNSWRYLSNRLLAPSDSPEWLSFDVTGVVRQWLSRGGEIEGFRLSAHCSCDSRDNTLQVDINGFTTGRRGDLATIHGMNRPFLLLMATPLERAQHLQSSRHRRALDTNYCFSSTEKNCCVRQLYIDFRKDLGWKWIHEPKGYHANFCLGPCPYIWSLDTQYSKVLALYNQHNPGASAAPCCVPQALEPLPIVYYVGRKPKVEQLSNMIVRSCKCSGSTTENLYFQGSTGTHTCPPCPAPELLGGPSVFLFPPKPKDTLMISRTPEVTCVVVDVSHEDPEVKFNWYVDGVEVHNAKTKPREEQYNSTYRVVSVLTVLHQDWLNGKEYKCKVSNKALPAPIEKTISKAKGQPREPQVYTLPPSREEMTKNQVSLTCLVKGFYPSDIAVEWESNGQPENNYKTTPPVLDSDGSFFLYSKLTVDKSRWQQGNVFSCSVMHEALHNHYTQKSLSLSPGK
ASSAY COMMENT: SPR, antigen-Fc captured, Fab analyte
ENDPOINT: Fold improvement in KD (fold)
Answer format: numeric, fold implied, no suffix.

{"BINDER": "72BJN (Fab, V domains shown, also called VH S31Q W33D W99Y / VL T30Y R53I (72BJN)) VH: EVQLVQSGAEVKKPGASVKVSCKASGYTFTQYDMHWVRQAPGQGLEWMGRIDPQSGGIKYAQKFQGRATLTVDTSTSTAYMELSRLRSDDTAVYYCARYDYGGYFDVWGQGTLVTVSS VL: DIQMTQSPSSLSASVGDRVTITCRASQDIYNYLNWYQQKPGKAVKLLIYYTSILHSGVPSRFSGSGSGTDYTLTISSLQPEDFATYFCQQGDTLPWTFGQGTKLEIKR", "Fold improvement in KD, fold": 130}

# context switch: different binder, same Fold improvement in KD
Exercise: Record request: Fold improvement in KD value, item 68BJN (Fab, V domains shown, also called VH H35Q S55D S57D W99Y / VL T30Y R53V (68BJN)) VH: EVQLVQSGAEVKKPGASVKVSCKASGYTFTSYWMQWVRQAPGQGLEWMGRIDPQDGDIKYAQKFQGRATLTVDTSTSTAYMELSRLRSDDTAVYYCARYDYGGYFDVWGQGTLVTVSS VL: DIQMTQSPSSLSASVGDRVTITCRASQDIYNYLNWYQQKPGKAVKLLIYYTSVLHSGVPSRFSGSGSGTDYTLTISSLQPEDFATYFCQQGDTLPWTFGQGTKLEIKR
Solution: 4200
